// data source = patent US11180770B2

- Test system: HPPD polypeptides
- experimental-details: coupled HPPD activity assay: turnover and residual turnover in crude extracts
- Type: biochemical, Pseudomonas fluorescens
- test-settings: presence of 100 μM Cmpd. 1; high substrate concentration; changes in absorbance (OD) at 320 nm
endpoint: Residual turnover
Number, no unit, nothing else.

3 (protein, mutant HPPD polypeptide) MADLYENPMGLMGFEFIEFASPTPGTLEPIFEIMGFTKVATHRSKNVHLYRQGEINLILNNEPNSIASYFAAEHGPSVCGMAFRVKDSQKAYNRALELGAQPIHIDTGPMELNLPAIKGIGGAPLYLIDRFGEGSSIYDIDFVYLEGVERNPVGAGLKVIDHLTHNVYRGRMVYWANFYEKLFNFREARYFDIKGEYTGLTSKAMSAPDGMIRIPLNEESSKGAGQIEEFLMQFNGEGIQHVAFLTDDLVKTWDALKKIGMRFMTAPADTYYEMLEGRLPDHGEPVDQLQARGILLDGSSVEGDKRLLLQIFSETLMGPVFFEFIQRKGDDGFGPDSFKVLFESIERDQVRRGVLTAD    0.061
28 (protein, mutant HPPD polypeptide) MADLYENPMGLMGFEFIEFASPTPGTLEPIFEIMGFTKVATHRSKNVHLYRQGEINLILNNEPNSIASYFAAEHGPSVCGMAFRVKDSQKAYNRALELGAQPIHIDTGPMELNLPAIKGIGGAPLYLIDRFGEGSSIYDIDFVYLEGVERNPVGAGLKVIDHLTHNVYRGRMVYWANFYEKLFNFREARYFDIKGEYTGLTSKAMSAPDGMIRIPLNEESSKGAGQIEEFLMQFNGEGIQHVAFLTDDLVKTWDALKKIGMRFMTAPGDNYYEMLEGRLPDHGEPVDQLQARGILLDGSSVEGDKRLLLQIFSETLMGPVFFEFIQRKGDDGFGPHSFKVLFESIERDQVRRGVLTAD    0.088
40 (protein, mutant HPPD polypeptide) MADLYENPMGLMGFEFIEFASPTPGTLEPIFEIMGFTKVATHRSKNVHLYRQGEINLILNNEPNSIASYFAAEHGPSVCGMAFRVKDSQKAYNRALELGAQPIHIDTGPMELNLPAIKGIGGAPLYLIDRFGEGSSIYDIDFVYLEGVERNPVGAGLKVIDHLTHNVYRGRMVYWANFYEKLFNFREARYFDIKGEYTGLTSKAMSAPDGMIRIPLNEESSKGAGQIEEFLMQFNGEGIQHVAFLTDDLVKTWDALKKIGMRFMTAPGDEYYEMLEGRLPDHGEPVDQLQARGILLDGSSVEGDKRLLLQIFSETLMGPVFFEFIQRKGDDGFGPDSFKVLFESVERDQVRRGVLTAD    0.073

Moving on to the next molecule.
For the molecule 64 (protein, mutant HPPD polypeptide) MADLYENPMGLMGFEFIEFASPTPGTLEPIFEIMGFTKVATHRSKNVHLYRQGEINLILNNEPNSIASYFAAEHGPSVCGMAFRVKDSQKAYNRALELGAQPIHIDTGPMELNLPAIKGIGGAPLYLIDRFGEGSSIYDIDFVYLEGVERNPVGAGLKVIDHLTHNVYRGRMVYWANFYEKLFNFREARYFDIKGEYTGLTSKAMSAPDGMIRIPLNEESSKGAGQIEEFLMQFNGEGIQHVAFLTDDLVKTWDALKKIGMRFMTAPADSYYEMLEGRLPDHGEPVDQLQARGILLDGSSVEGDKRLLLQIFSETLMGPVFFEFIQRKGDDGFGPHSFKVLFEQMERDQVRRGVLTAD , what Residual turnover is on record?
0.114
